Sourced from ChEMBL document CHEMBL1146994

# targetSystem: Sodium-dependent serotonin transporter (Homo sapiens)
# Sequence (P31645 whole entry): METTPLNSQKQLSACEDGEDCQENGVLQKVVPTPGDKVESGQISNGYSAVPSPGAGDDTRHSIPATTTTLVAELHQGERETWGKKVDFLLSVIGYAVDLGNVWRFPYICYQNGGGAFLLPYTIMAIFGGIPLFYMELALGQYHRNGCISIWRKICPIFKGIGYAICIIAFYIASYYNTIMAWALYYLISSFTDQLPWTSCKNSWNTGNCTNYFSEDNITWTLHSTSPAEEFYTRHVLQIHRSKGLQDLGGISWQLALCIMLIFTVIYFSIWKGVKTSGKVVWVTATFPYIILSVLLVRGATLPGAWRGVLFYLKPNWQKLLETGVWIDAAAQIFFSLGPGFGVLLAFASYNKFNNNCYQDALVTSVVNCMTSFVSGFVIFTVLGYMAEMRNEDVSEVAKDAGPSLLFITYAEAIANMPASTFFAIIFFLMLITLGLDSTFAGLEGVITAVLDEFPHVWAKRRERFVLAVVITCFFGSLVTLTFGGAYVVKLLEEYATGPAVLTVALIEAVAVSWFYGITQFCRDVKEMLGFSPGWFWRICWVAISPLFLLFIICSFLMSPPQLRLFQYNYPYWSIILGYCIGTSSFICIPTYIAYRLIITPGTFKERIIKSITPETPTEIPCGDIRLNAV
# experimentNotes: Displacement of [3H]paroxetine from 5HT reuptake site
Checkbox rule: Ki lower than 0.5 nM = Met; Ki not lower than 0.5 nM = Not met.

Reference set (10 entries):
molecule	targetSystem	className
Cc1cccc2sc([C@@H]3CCN(C[C@H](O)COc4cccc5[nH]ccc45)[C@@H](C)C3)cc12	Sodium-dependent serotonin transporter (Homo sapiens)	Met
O[C@H](COc1cccc2[nH]ccc12)CN1CCC(c2cc3ccccc3s2)CC1	Sodium-dependent serotonin transporter (Homo sapiens)	Not met
C[C@H]1C[C@H](c2cc3ccc(F)cc3s2)CCN1C[C@H](O)COc1cccc2[nH]ccc12	Sodium-dependent serotonin transporter (Homo sapiens)	Met
O[C@H](COc1cccc2[nH]ccc12)CN1CCC(c2cc3ccc(F)cc3s2)CC1	Sodium-dependent serotonin transporter (Homo sapiens)	Not met
C[C@H]1C[C@H](c2cc3cc(Cl)ccc3s2)CCN1C[C@H](O)COc1cccc2[nH]ccc12	Sodium-dependent serotonin transporter (Homo sapiens)	Not met
COc1cccc2sc([C@H]3CCN(C[C@H](O)COc4cccc5[nH]ccc45)[C@H](C)C3)cc12	Sodium-dependent serotonin transporter (Homo sapiens)	Not met
COc1cccc2sc(C3CCN(C[C@H](O)COc4cccc5[nH]ccc45)CC3)cc12	Sodium-dependent serotonin transporter (Homo sapiens)	Not met
COc1cccc2sc(C3CCN(C[C@H](O)COc4cccc5[nH]c(C)cc45)CC3)cc12	Sodium-dependent serotonin transporter (Homo sapiens)	Not met
COc1cccc2sc([C@@H]3CCN(C[C@H](O)COc4cccc5[nH]ccc45)[C@@H](C)C3)cc12	Sodium-dependent serotonin transporter (Homo sapiens)	Met
COc1cccc2sc([C@H]3CCN(C[C@H](O)COc4cccc5[nH]ccc45)[C@@H](C)C3)cc12	Sodium-dependent serotonin transporter (Homo sapiens)	Not met

Report whether reported Ki is lower than 0.5 nM (strictly) for COc1ccc2cc([C@@H]3CCN(C[C@H](O)COc4cccc5[nH]ccc45)[C@@H](C)C3)sc2c1
Not met

Subsequent entry: Cc1cc2c(OC[C@@H](O)CN3CC[C@@H](c4cc5cc(F)ccc5s4)C[C@@H]3C)cccc2[nH]1
Met

----------
# System: Rattus norvegicus
# experimentNotes: Ability to block PCA-induced depletion of 5HT concentration in po dosed rat brain after 2 hrs
# Format: functional
endpoint: ED50 (mg/kg)
Provide the reading as a plain figure in mg/kg.

Consider the worked cases shown below.
molecule	ED50 [mg/kg]
COc1cccc2sc([C@@H]3CCN(C[C@H](O)COc4cccc5[nH]ccc45)[C@@H](C)C3)cc12	3.71
C[C@H]1C[C@H](c2cc3ccc(F)cc3s2)CCN1C[C@H](O)COc1cccc2[nH]ccc12	0.69
COc1cccc2sc([C@@H]3CCN(C[C@H](O)COc4cccc5[nH]c(C)cc45)[C@@H](C)C3)cc12	3.79
C[C@H]1C[C@H](c2cc3cc(Cl)ccc3s2)CCN1C[C@H](O)COc1cccc2[nH]ccc12	3.65

Now take the following compound into account.
Fill in: ED50 of Cc1cccc2sc([C@@H]3CCN(C[C@H](O)COc4cccc5[nH]ccc45)[C@@H](C)C3)cc12 is ___
1.65

----------
Measured inhibition, listed per entry.
# targetSystem: UniProt:P19327
# Sequence (P19327 whole entry): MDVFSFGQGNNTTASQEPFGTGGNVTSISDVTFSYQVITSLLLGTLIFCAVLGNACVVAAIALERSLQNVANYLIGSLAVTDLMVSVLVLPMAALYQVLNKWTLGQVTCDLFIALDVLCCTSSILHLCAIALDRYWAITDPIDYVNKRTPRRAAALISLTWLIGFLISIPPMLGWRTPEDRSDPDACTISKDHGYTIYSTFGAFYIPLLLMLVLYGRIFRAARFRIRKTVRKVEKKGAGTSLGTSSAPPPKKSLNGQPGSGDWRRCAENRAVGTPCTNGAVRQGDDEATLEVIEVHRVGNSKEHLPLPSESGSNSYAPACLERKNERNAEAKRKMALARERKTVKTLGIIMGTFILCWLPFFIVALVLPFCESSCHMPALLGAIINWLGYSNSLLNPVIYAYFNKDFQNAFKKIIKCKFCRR
# experimentNotes: Receptor occupancy ex vivo by inhibition of [3H]8-OH-DPAT binding to 5HT1A receptor in Sprague-Dawley rat frontal cortex tissue at 30 mg/kg, po relative to control
# Format: functional, organism-based
# Set-up: dose 30 mg/kg
Report as a plain number; the unit % is understood.

molecule	inhibition / %
COc1cccc2sc([C@H]3CCN(C[C@H](O)COc4cccc5[nH]ccc45)[C@@H](C)C3)cc12	40
COc1cccc2sc(C3CCN(C[C@H](O)COc4cccc5[nH]ccc45)CC3)cc12	4
Cc1cccc2sc([C@@H]3CCN(C[C@H](O)COc4cccc5[nH]ccc45)[C@@H](C)C3)cc12	20
COc1cccc2sc([C@@H]3CCN(C[C@H](O)COc4cccc5[nH]ccc45)[C@H](C)C3)cc12	28
C[C@H]1C[C@H](c2cc3cc(Cl)ccc3s2)CCN1C[C@H](O)COc1cccc2[nH]ccc12	47

// returns reported inhibition for input COc1cccc2sc([C@@H]3CCN(C[C@H](O)COc4cccc5[nH]ccc45)[C@@H](C)C3)cc12
13

Entry O[C@H](COc1cccc2[nH]ccc12)CN1CCC(c2cc3ccc(F)cc3s2)CC1 please
9

----------
# targetSystem: Sodium-dependent serotonin transporter (Rattus norvegicus) (UniProt P31652)
# Sequence (P31652 whole entry): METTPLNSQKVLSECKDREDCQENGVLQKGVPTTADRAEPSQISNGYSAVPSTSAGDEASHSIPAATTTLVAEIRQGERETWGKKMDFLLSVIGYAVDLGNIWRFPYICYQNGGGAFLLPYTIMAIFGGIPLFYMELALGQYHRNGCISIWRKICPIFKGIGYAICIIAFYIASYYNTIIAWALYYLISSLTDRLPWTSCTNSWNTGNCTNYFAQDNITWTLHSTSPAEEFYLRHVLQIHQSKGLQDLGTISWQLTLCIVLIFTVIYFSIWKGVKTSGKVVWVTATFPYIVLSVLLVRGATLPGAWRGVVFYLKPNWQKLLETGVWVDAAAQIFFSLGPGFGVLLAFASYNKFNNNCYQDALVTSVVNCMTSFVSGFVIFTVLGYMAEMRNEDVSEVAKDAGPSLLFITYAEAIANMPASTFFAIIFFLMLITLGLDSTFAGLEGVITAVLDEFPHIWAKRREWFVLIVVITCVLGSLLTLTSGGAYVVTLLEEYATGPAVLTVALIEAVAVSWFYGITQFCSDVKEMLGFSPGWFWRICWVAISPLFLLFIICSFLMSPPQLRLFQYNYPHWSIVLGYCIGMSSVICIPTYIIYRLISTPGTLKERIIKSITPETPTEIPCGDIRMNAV
# experimentNotes: Receptor occupancy ex vivo by inhibition of [3H]paroxetine binding to 5HT reuptake site in Sprague-Dawley rat frontal cortex tissue at 30 mg/kg, po relative to control
# Format: functional, organism-based
# Set-up: dose 30 mg/kg
Measured inhibition values are reported for all entries that follow.
A number alone suffices; assume %.

Worked examples follow.
molecule	targetSystem	inhibition (%)
Cc1cccc2sc([C@@H]3CCN(C[C@H](O)COc4cccc5[nH]ccc45)[C@@H](C)C3)cc12	Sodium-dependent serotonin transporter (Rattus norvegicus) (UniProt P31652)	9
C[C@H]1C[C@H](c2cc3cc(Cl)ccc3s2)CCN1C[C@H](O)COc1cccc2[nH]ccc12	Sodium-dependent serotonin transporter (Rattus norvegicus) (UniProt P31652)	39
COc1cccc2sc([C@@H]3CCN(C[C@H](O)COc4cccc5[nH]ccc45)[C@@H](C)C3)cc12	Sodium-dependent serotonin transporter (Rattus norvegicus) (UniProt P31652)	11
O[C@H](COc1cccc2[nH]ccc12)CN1CCC(c2cc3ccc(F)cc3s2)CC1	Sodium-dependent serotonin transporter (Rattus norvegicus) (UniProt P31652)	13
COc1cccc2sc([C@@H]3CCN(C[C@H](O)COc4cccc5[nH]ccc45)[C@H](C)C3)cc12	Sodium-dependent serotonin transporter (Rattus norvegicus) (UniProt P31652)	70

Report inhibition for COc1ccc2cc([C@@H]3CCN(C[C@H](O)COc4cccc5[nH]ccc45)[C@@H](C)C3)sc2c1 please.
29

And then O[C@H](COc1cccc2[nH]ccc12)CN1CCC(c2cc3ccccc3s2)CC1 , what is it?
80

Same for COc1cccc2sc([C@H]3CCN(C[C@H](O)COc4cccc5[nH]ccc45)[C@H](C)C3)cc12
8

Try the compound C[C@H]1C[C@H](c2cc3ccccc3s2)CCN1C[C@H](O)COc1cccc2[nH]ccc12
-2

Follow-up item: Cc1cc2c(OC[C@@H](O)CN3CC[C@@H](c4cc5cc(F)ccc5s4)C[C@@H]3C)cccc2[nH]1
30

----------
# targetSystem: 5-hydroxytryptamine receptor 1A (Rattus norvegicus)
# experimentNotes: Receptor occupancy ex vivo by inhibition of [3H]8-OH-DPAT binding to 5HT1A receptor in Sprague-Dawley rat frontal cortex tissue at 30 mg/kg, po relative to control
# Assay type: functional, organism-based
# Set-up: dose 30 mg/kg
Examples of compounds with documented inhibition follow.
Answer in %, number only, no unit symbol.

molecule	resultUnits	inhibition
COc1cccc2sc([C@@H]3CCN(C[C@H](O)COc4cccc5[nH]c(C)cc45)[C@@H](C)C3)cc12	%	-3
O[C@H](COc1cccc2[nH]ccc12)CN1CCC(c2cc3ccccc3s2)CC1	%	6
Cc1cc2c(OC[C@@H](O)CN3CC[C@@H](c4cc5ccccc5s4)C[C@@H]3C)cccc2[nH]1	%	5
C[C@H]1C[C@H](c2cc3ccc(F)cc3s2)CCN1C[C@H](O)COc1cccc2[nH]ccc12	%	23
COc1cccc2sc([C@H]3CCN(C[C@H](O)COc4cccc5[nH]ccc45)[C@H](C)C3)cc12	%	33

// lookup inhibition | system=5-hydroxytryptamine receptor 1A (Rattus norvegicus) | key= Cc1cc2c(OC[C@@H](O)CN3CC[C@@H](c4cc5cc(F)ccc5s4)C[C@@H]3C)cccc2[nH]1
6

Another compound to check: COc1ccc2cc([C@@H]3CCN(C[C@H](O)COc4cccc5[nH]ccc45)[C@@H](C)C3)sc2c1
14

Queued: C[C@H]1C[C@H](c2cc3ccccc3s2)CCN1C[C@H](O)COc1cccc2[nH]ccc12
1

----------
Catalogue of molecules with associated inhibition
# targetSystem: Sodium-dependent serotonin transporter (Rattus norvegicus) (UniProt P31652)
# experimentNotes: Receptor occupancy ex vivo by inhibition of [3H]paroxetine binding to 5HT reuptake site in Sprague-Dawley rat frontal cortex tissue at 30 mg/kg, po relative to control
# Format: functional, organism-based
# Parameters: dose 30 mg/kg
Please state the figure in %; there is no need to write the unit.

These recorded examples may help you get a feel for the data.
molecule	inhibition, %
C[C@H]1C[C@H](c2cc3ccc(F)cc3s2)CCN1C[C@H](O)COc1cccc2[nH]ccc12	8
COc1cccc2sc(C3CCN(C[C@H](O)COc4cccc5[nH]ccc45)CC3)cc12	100
COc1cccc2sc([C@@H]3CCN(C[C@H](O)COc4cccc5[nH]c(C)cc45)[C@@H](C)C3)cc12	26
Cc1cc2c(OC[C@@H](O)CN3CC[C@@H](c4cc5ccccc5s4)C[C@@H]3C)cccc2[nH]1	17

Now turn to the next molecule.
Param readout= inhibition; system= Sodium-dependent serotonin transporter (Rattus norvegicus) (UniProt P31652); entry= COc1cccc2sc([C@H]3CCN(C[C@H](O)COc4cccc5[nH]ccc45)[C@@H](C)C3)cc12 ; returns value.
88
